Origin of measurements: PubChem BioAssay (NCI)

Test system: SK-OV-3 ovarian
Assay: NCI tumour cell line growth inhibition, 48 h
Where a SMILES comes first, the peptide text is derived from it. [ ]: non-standard residue; d: D form. ξ: configuration not given here. ξLac(3-iPr) = CC(C)CC(O)C(=O)O; NMeV = CN[CH](C(=O)O)C(C)C; NMeA = CN[CH](C)C(=O)O; βAla = NCCC(=O)O
Answer each item with its documented TGI.

-- ask Would you kindly share the measured TGI for `O=C(CCc1ccccc1)n1cccc1CO` ?
-- reply > 100 µM

-- ask Same thing, different molecule: `NS(=O)(=O)CC1CC[CH-]CC1.[Cl-].[Cl-].[Cl-].[Cl-].[Cl-].[Sb+5].c1ccncc1`
-- reply > 100 µM

-- ask Same thing, different molecule: `COc1ccc2c(c1)C(=O)/C(=C/c1ccc([N+](=O)[O-])o1)O2`
-- reply > 29.9 µM

-- ask Same thing, different molecule: `CSc1snc2sc3c(Cl)nnnc3c12`
-- reply 33.3 µM

-- ask Same thing, different molecule: `CCOC(=O)C#Cc1c(C(=O)OCC)nnn1Cc1ccc([N+](=O)[O-])cc1`
-- reply 51.1 µM

-- ask Same thing, different molecule: Cc1ccc(C2COc3cc(O)c(O)cc3C2)cc1 (stereo not drawn)
-- reply 275 µM

-- ask Same thing, different molecule: CCNC12CCC(C1)C(C)(C)C2=O (stereo not drawn)
-- reply > 100 µM

-- ask Same thing, different molecule: `O=C(Nc1cccc(-c2ccc(Cl)c(C(F)(F)F)c2)c1)C1CCN(Cc2cccc3cccnc23)CC1`
-- reply 3.37 µM

-- ask Same thing, different molecule: `Cc1cn2c(/C=N/N=C(N)N)c(-c3ccccn3)nc2s1`
-- reply > 65 µM

-- ask Same thing, different molecule: `CCOC(=O)c1cnc2sc3ccc4ccccc4c3n2c1=O`
-- reply > 100 µM

-- ask Same thing, different molecule: CCC(C)C1NC(=O)C2CCCN2C(=O)C(CC(C)C)OC(=O)CCNC(=O)C(C)N(C)C(=O)C(C(C)C)N(C)C1=O (stereo not drawn) (cyclo([ξLac(3-iPr)]PI[NMeV][NMeA][βAla]); configuration not given here)
-- reply > 86.8 µM

-- ask Same thing, different molecule: COc1ccc(/C(=C/n2ccnc2)C(O)c2ccc(OC)c(OC)c2)cc1OC (stereo not drawn)
-- reply > 100 µM

-- ask Same thing, different molecule: `O=c1[nH]nc(-c2ccccc2)n1/N=C/c1ccccc1Cl`
-- reply > 100 µM

-- ask Same thing, different molecule: NC(=O)SCCC(N)C(=O)O (stereo not drawn)
-- reply > 100 µM

-- ask Same thing, different molecule: `CC(C)(C)OC(=O)NCCCC(=O)NC1(c2cc3ccccc3s2)CCCCC1`
-- reply 99.5 µM

-- ask Same thing, different molecule: C#CCN(N=O)C(=O)NCCCCC(NC(C)=O)C(=O)NCc1ccccc1 (stereo not drawn)
-- reply > 100 µM

-- ask Same thing, different molecule: O/N=C1/CC2(N3CCOCC3)C3CC/C(=N\O)C2CC1(Cc1ccccc1)C3 (stereo not drawn)
-- reply > 100 µM

-- ask Same thing, different molecule: COc1cc2c(cc1O)C1(Cc3ccc4c(c3C1=O)OCO4)N(C)CC2 (stereo not drawn)
-- reply > 100 µM

-- ask Same thing, different molecule: `CCCN(CCC)c1ccc(/C=N/NC(=O)c2cccnc2)c(OC)c1`
-- reply 71.3 µM

-- ask Same thing, different molecule: `Oc1ccc(C2c3ccccc3Oc3ccccc32)c2cccnc12`
-- reply > 100 µM

-- ask Same thing, different molecule: `CCOC(=O)c1c(C)n([O-])c2cc(Cl)c(Cl)cc2[n+]1=O`
-- reply 85.9 µM

-- ask Same thing, different molecule: CC1CN(c2cc3c(cc2F)c(=O)c(C(=O)O)cn3-c2ccc(F)cn2)CC(C)N1 (stereo not drawn)
-- reply > 100 µM

-- ask Same thing, different molecule: `CCOC(=O)c1cc(Br)c(-c2cc(C)no2)[nH]1`
-- reply > 100 µM
